Data origin, for the record: patent US20200255499A1

Each entry below carries its reported absorbance.
Target: T1, Epstein Barr Virus (EBV) glycoprotein gp350 (Epstein-Barr virus, UniProt P03200 1-860)
T1 construct: Viral antigen: immunogen, coated in the ELISAs, immobilised on the CM5 chip in SPR; also called EBV gp350; gp350 antigen
T1 sequence: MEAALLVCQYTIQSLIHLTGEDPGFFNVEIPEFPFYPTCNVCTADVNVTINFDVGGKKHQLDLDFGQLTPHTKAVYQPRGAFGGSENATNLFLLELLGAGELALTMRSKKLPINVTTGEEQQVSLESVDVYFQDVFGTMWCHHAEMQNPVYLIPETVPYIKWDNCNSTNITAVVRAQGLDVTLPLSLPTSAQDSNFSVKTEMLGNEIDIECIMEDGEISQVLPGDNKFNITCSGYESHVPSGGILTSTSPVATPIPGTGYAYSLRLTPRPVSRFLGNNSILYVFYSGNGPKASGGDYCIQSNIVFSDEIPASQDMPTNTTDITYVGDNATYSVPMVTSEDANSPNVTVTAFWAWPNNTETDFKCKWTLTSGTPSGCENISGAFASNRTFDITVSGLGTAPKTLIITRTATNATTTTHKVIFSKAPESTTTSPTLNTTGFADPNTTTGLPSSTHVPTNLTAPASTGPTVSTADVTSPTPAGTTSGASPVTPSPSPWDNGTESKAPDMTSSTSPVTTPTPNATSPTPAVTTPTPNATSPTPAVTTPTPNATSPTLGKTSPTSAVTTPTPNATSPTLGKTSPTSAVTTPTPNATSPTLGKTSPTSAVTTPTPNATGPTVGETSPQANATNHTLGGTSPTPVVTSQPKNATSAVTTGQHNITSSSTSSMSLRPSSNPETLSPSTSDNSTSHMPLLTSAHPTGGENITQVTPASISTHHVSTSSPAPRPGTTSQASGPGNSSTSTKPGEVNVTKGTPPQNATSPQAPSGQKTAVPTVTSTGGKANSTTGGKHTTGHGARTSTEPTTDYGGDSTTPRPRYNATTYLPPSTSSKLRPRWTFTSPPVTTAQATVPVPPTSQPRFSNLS
Assay: monoclonal phage ELISA on gp350

Some solved cases for reference:
binder: Clone B8, original phage-displayed antibody fragment (other, VH and VL are as translated from the PCR products of the original phage clone; also called CloneB8 (phage clone)) VH: EVQLVESAGEVQKPGESLRISCKASGYTFSHYWIGWVRQLPGKGLEWMGIIYPDDSDSRYSPSFQGQVTMSVDKSINTAYLQWNSLKVSDTATYYCVRHWLKRGSNFGFGFDPWGQGTTLTVSS VL: ESALTQPASVSGSPGQSITISCTGTSSDVGGYNYVSWYQQHPGKAPKLMIYDVSNRPSGVSNRFSGSKSGNTASLTISGLQAEDEADYYCSSYTSSSTLVFGGGTKLTVLG
absorbance: > 1 absorbance
//
binder: Clone C10, original phage-displayed antibody fragment (other, also called CloneC10 (phage clone)) VH: EVQLVQSGAEVKKPGASVKVSCKASGYTFNAYYIHWVRQAPGQGLDWMGWINPNSGGTNYAQNFKGRVTMTRDTSISTAYLELRSLTSDDTAVYFCATERGYTSSFRRDAFDKWGQGTMLTVSS VL: EAVVTQPPSASGTPGQGVTISCSGSSSNIGSNFVYWYQQLPGTAPKLLIYRNNQRPSGVPDRFSGSKSATSASLAISGLRSEDEADYYCATWDDSLSGYVFGTGTKLTVLG
absorbance: > 1 absorbance
//
binder: Clone E10, original phage-displayed antibody fragment (other, also called CloneE10 (phage clone)) VH: EVQLVQSGAEVKKPGASVEVSCKASGYTFNAYYIHWVRQAPGQGLDWMGWINPNSGGTNYAQNFKGRVTMTRDTSISTAYLELRSLTSDDTAVYFCATERGYTSSFRRDAFDKWGQGTLLTVSS VL: ESVLTQPPSISAAPGQRVTIPCSGSSSDIGNHYVSWYQQLPGAAPKLLIYEDNKRPSGIPDRFSGSKSGTSASLGITGLQTGDEADYYCGTWDNSLRSGFFGGGTKVTVLG
absorbance: > 1 absorbance
//
binder: Clone D7, original phage-displayed antibody fragment (other, also called CloneD7 (phage clone)) VH: EVQLVQSGAEVKKPGASVEVSCKASGYTFNAYYIHWVRQAPGQGLDWMGWINPNSGGTNYAQNFKGRVTMTRDTSISTAYLELRSLTSDDTAVYFCATERGYTSSFRRDAFDKWGQGTMLTVSS VL: ESVLTQPPSVSAAPGQKVTMSCSGSTSNIGSNSVSWYQHLPGTAPKLLLFDNAKRPSGIPDRFSGSKSGTSATLGITGLQTGDEADYYCGTWDSGLSVMVFGGGTKLTVLG
absorbance: > 1 absorbance
//
binder: Clone B7, original phage-displayed antibody fragment (other, also called CloneB7 (phage clone)) VH: EVQLVQSGAEVKKPGASVEVSCKASGYTFNAYYIHWVRQAPGQGLDWMGWINPNSGGTNYAQNFKGRVTMTRDTSISTAYLELRSLTSDDTAVYFCATERGYTSSFRRDAFDKWGQGTMLTVSS VL: ESVLTQPPSVSAAPGQKVTISCSGSSSNIGNNYVSWYQQLPGTAPKLLIYENNKRPSGIPDRFSGSKSGTSATLGITGLQTGDEAGYYCGTWDSSLSAVVFGGGTKLTVLG
absorbance: > 1 absorbance

Lab note: next binder to report on.
Retrieve absorbance measured for Clone A11, original phage-displayed antibody fragment (other, The printed VH and VL begin one or two residues later than those of the other clones, so they may be cut short at the N-terminus; also called CloneA11 (phage clone)) VH: MQLVQSGAEVKKPGASVKVSCKTSGYNFNHQGISWLRQAPGQGLEWMGWISGFNGKTNYAQKFQGRVTMTADRSTTTAYMELRSLRSDDTAVYYCASGGEQWLVQNFVHWGQGTLLTVSS VL: VLTQEPSLTVSPGGTVTLTCASSTGAVTSGYYPNWFQQKPGQAPRALIYSTSNKHSWTPARFSGSLLGGKAALTLSGVQPEDEAEYYCLLYYGGAWVFGGGTKLTVL and print it.
> 1 absorbance
